target.or.system: MERTK (UniProt Q12866)
Sequence (Q12866 whole entry, looked up): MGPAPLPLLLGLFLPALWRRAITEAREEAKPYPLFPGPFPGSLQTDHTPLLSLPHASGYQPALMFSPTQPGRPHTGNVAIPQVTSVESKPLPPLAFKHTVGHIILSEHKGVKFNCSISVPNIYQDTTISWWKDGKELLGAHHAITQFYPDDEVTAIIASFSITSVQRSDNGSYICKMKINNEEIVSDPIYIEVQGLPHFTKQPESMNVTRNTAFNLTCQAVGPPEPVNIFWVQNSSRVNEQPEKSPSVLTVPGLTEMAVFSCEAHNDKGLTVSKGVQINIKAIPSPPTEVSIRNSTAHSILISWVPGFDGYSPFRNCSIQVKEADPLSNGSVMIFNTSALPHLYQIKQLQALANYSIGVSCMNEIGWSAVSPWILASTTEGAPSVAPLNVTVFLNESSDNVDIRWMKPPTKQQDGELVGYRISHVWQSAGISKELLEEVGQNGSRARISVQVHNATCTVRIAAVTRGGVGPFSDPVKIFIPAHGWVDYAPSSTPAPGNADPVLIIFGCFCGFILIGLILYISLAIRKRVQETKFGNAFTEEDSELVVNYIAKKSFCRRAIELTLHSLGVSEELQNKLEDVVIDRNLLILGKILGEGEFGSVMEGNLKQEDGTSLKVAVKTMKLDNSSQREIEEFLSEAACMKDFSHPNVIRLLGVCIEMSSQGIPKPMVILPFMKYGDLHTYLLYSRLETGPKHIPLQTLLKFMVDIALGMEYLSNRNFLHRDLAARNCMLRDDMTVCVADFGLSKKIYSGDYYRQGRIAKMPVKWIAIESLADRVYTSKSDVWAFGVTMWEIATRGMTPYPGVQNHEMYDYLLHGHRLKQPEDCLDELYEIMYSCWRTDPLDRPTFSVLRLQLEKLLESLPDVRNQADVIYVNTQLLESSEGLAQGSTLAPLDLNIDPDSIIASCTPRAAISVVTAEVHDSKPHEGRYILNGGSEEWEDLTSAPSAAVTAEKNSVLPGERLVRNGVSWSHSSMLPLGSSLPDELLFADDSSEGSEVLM
protocol.summary: phosphorylation enrichment, bacterial display (enrichment ratio); higher = better substrate or ligand; peptides without Tyr show the background
Entry class follows phosphorylation enrichment: class 0: < 0.4; class 1: ≥ 0.4 and < 0.6; class 2: ≥ 0.6

INSERT INTO measurements (residues, class_label) VALUES
  ('FKGIVYSVSSD [DCX_Y70_A71S]', 'class 1'),
  ('IRDENYGEGSS [ACO2_Y665_G661R]', 'class 1'),
  ('MGGSLYFSFPD [HIKESHI_Y55_V54L_YF]', 'class 2'),
  ('SARHHYESLQT [BIN1_Y157]', 'class 1'),
  ('TTKGAYSLSIR [YES1_Y194]', 'class 1'),
  ('FKNGDYNEVMK [LCT_Y1638]', 'class 0'),
  ('EQKKYYNATKK [SCN5A_Y1495_M1498T]', 'class 0'),
  ('VVGMLYVGGLP [LAMA2_Y2886]', 'class 1'),
  ('VTAALYGRLFE [BTD_Y536_YF]', 'class 2'),
  ('IIEDPYFGNDS [ACP1_Y132_YF]', 'class 2'),
  ('EVEPTYVVLFD [ERCC4_Y577_R576T_YF]', 'class 2'),
  ('RRGMPYGGLGD [TGM1_Y312_R315L]', 'class 2'),
  ('SVAVPYEPPEV [TP53_Y220_V217A]', 'class 1'),
  ('RRIHSYRGYLW [VHL_Y112_H115Y]', 'class 1'),
  ('LQLLGYRPVFS [CHST6_Y358_YF]', 'class 1'),
  ('GTGTAYLCGVK [ALPL_Y117_A114G]', 'class 0'),
  ('LKSEMYQKLLK [RGS13_Y146]', 'class 0'),
  ('PVKAAYQKVVA [HBB_Y131_Q128K]', 'class 1'),
  ('TGDFGYRAPGY [TNS2_Y668]', 'class 0'),
  ('RAYRRYLLKQK [SCN2A_Y1919]', 'class 0'),
  ('NLTVNYKKNLI [SQOR_Y259]', 'class 1'),
  ('WAFNLYDINKY [KCNIP3_Y174_D179Y]', 'class 2'),
  ('MEFAKYGSLRG [RET_Y809_V804M_YF]', 'class 1'),
  ('FIRKDYEACKA [BBS4_Y48_YF]', 'class 0'),
  ('ASQEEYSAMRD [KRAS_Y64_G60S]', 'class 1'),
  ('LDPMVYMNDTS [PTK2B_Y834_K838T]', 'class 2'),
  ('WQQQSYLGSGI [CTNNB1_Y30_D32G]', 'class 0'),
  ('HFEFKYVINAI [MAOA_Y268_C266F_YF]', 'class 2'),
  ('KSPGEYVNIEF [IRS1_Y896]', 'class 1'),
  ('RNFDTYTAGLS [RHBDD1_Y264_YF]', 'class 1'),
  ('QLHREYCLSPR [HJURP_Y445]', 'class 2'),
  ('PFFTSYPPSPD [GDAP2_Y491_YF]', 'class 2'),
  ('CPSLLYSPVSS [CAMKK2_Y128_P127L]', 'class 2'),
  ('RNNTEYVRDIG [MUSK_Y577_I575T]', 'class 0'),
  ('INITIYGKTFC [EFHC1_Y177_R182C]', 'class 1'),
  ('RMSSSYPTGLA [ADM_Y52]', 'class 1'),
  ('QNTGDYFDLFG [PTPN11_Y62_YF]', 'class 2'),
  ('VFGVSYDEFRF [CFTR_Y512_I507V_YF]', 'class 2'),
  ('RSRSPYSPVFR [CDK13_Y399_L403F]', 'class 2'),
  ('IPPRRYFCSGV [STAMBP_Y36_R38C]', 'class 1'),
  ('ATQDNYVLEVR [PTPRZ1_Y2179_D2178N]', 'class 1');

---

target.or.system: Hck (UniProt P08631)
Sequence (P08631 whole entry, looked up): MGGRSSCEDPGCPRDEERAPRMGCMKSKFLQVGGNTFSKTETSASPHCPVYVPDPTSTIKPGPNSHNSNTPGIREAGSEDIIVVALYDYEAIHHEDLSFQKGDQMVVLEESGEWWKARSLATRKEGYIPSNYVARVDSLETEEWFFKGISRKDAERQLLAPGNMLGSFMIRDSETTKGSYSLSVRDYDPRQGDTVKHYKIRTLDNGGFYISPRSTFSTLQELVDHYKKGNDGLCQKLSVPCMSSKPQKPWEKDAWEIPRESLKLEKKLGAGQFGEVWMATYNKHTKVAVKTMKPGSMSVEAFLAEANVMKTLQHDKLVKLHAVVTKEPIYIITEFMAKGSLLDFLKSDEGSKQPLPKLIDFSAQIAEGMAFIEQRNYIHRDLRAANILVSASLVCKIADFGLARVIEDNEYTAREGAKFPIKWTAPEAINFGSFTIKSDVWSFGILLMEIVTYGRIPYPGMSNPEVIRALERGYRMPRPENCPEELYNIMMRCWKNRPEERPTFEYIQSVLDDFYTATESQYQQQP
protocol.summary: phosphorylation enrichment, bacterial display (enrichment ratio); higher = better substrate or ligand; peptides without Tyr show the background
phosphorylation enrichment values, listed per item
readout.type: phosphorylation enrichment

INSERT INTO assay_data (residues, target_or_system, readout_type, reported_value) VALUES
  ('LIHTKYPQLLP [AHCY_Y143]', 'Hck (UniProt P08631)', 'phosphorylation enrichment', 0.428),
  ('EVKAQNEDIAQ [KRT1_Y358_Y358N]', 'Hck (UniProt P08631)', 'phosphorylation enrichment', 0.488),
  ('TRSFKCLLLSM [NF1_Y491_Y491C_YF]', 'Hck (UniProt P08631)', 'phosphorylation enrichment', 0.492),
  ('GITTGYLVLKE [DNMT3B_Y588_A585T]', 'Hck (UniProt P08631)', 'phosphorylation enrichment', 0.438),
  ('MKGDFYRSLAE [YWHAG_Y131_Y133S_YF]', 'Hck (UniProt P08631)', 'phosphorylation enrichment', 0.49),
  ('FFHCTYKQRMI [CLEC12A_Y242_K244Q_YF]', 'Hck (UniProt P08631)', 'phosphorylation enrichment', 0.498),
  ('TTICKYSTPME [GUCY2C_Y839]', 'Hck (UniProt P08631)', 'phosphorylation enrichment', 0.413),
  ('RSPLRYISILT [OR51B6_Y130_T131I]', 'Hck (UniProt P08631)', 'phosphorylation enrichment', 0.515),
  ('SSAAGYACLAF [MVD_Y131_YF]', 'Hck (UniProt P08631)', 'phosphorylation enrichment', 0.585),
  ('WRPFGYPRRRR [BCS1L_Y181]', 'Hck (UniProt P08631)', 'phosphorylation enrichment', 0.453),
  ('GAEIVYKSPVV [MAPT_Y711]', 'Hck (UniProt P08631)', 'phosphorylation enrichment', 0.497),
  ('RGNMYYENSYA [EGFR_Y113]', 'Hck (UniProt P08631)', 'phosphorylation enrichment', 0.845),
  ('MPQNEYIELHR [NSA2_Y6]', 'Hck (UniProt P08631)', 'phosphorylation enrichment', 0.743),
  ('DPLLTYLFPPK [LMNA_Y481_R482L]', 'Hck (UniProt P08631)', 'phosphorylation enrichment', 0.87),
  ('SPDMLYQFLKQ [RPAP3_Y567_YF]', 'Hck (UniProt P08631)', 'phosphorylation enrichment', 7.82),
  ('SPPEVYAIMRG [NTRK1_Y757_C752S]', 'Hck (UniProt P08631)', 'phosphorylation enrichment', 2.91),
  ('SVVVPCEPPEV [TP53_Y220_Y220C]', 'Hck (UniProt P08631)', 'phosphorylation enrichment', 0.517),
  ('GREAEYSEKHG [EPHB4_Y574_D576E]', 'Hck (UniProt P08631)', 'phosphorylation enrichment', 0.444),
  ('DGTVHYVDEKG [IFT140_Y216]', 'Hck (UniProt P08631)', 'phosphorylation enrichment', 0.586),
  ('QGIIIYRAAYF [SLC25A4_Y187]', 'Hck (UniProt P08631)', 'phosphorylation enrichment', 0.639),
  ('ILTFKYLQKPM [KIT_Y547_YF]', 'Hck (UniProt P08631)', 'phosphorylation enrichment', 0.543),
  ('HNLFSYPTKFE [MYO3A_Y1396_H1400Y_YF]', 'Hck (UniProt P08631)', 'phosphorylation enrichment', 0.684);

---

target.or.system: Grb2 SH2 (UniProt P62993)
Sequence (P62993 whole entry, looked up): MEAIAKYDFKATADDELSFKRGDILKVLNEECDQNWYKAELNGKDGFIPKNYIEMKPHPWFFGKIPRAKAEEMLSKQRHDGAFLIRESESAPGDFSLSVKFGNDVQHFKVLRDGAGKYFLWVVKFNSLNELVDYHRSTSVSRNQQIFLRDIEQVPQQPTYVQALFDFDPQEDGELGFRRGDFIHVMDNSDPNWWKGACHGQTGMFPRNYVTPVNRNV
protocol.summary: SH2 binding enrichment of the phosphorylated peptide, bacterial display (enrichment ratio); higher = better substrate or ligand; peptides without Tyr show the background
Answer 0.0 if SH2 binding enrichment is under 1, and 1.0 if it is 1 or more.

INSERT INTO results (residues, class_label) VALUES
  ('GEEIKDMLWLS [OTC_Y55_Y55D]', 0.0),
  ('QDGYSYLSRQM [LDLR_Y847_P848L]', 0.0),
  ('EILLSYLRTGY [TGM1_Y365]', 1.0),
  ('EFFENYIEELK [PARP4_Y218_F215Y_YF]', 0.0),
  ('FLQTDYTSQVS [FRMPD1_Y846]', 0.0),
  ('MANYVYKAGPS [MAML2_Y515_M514V]', 0.0),
  ('SVETPYVSVTF [NDRG2_Y47_G48V]', 0.0),
  ('CKLCQYYLDHL [ATRX_Y1849_Y1847C]', 1.0),
  ('FKGKNYKPLDL [RPL35_Y78_K77N_YF]', 0.0),
  ('RMSSSYPTGLA [ADM_Y52]', 0.0),
  ('CTTIYYNYMCN [TP53_Y234_H233Y]', 1.0),
  ('PLGVPYLDKPP [JMJD7_Y31_A28G]', 0.0),
  ('DFEGLYQEGGG [TMEM159_Y159_E154D]', 0.0),
  ('KLKNAYEESLE [MYH7_Y1488]', 0.0),
  ('LQTFRYHGLSM [PDHA1_Y289_H292L_YF]', 0.0),
  ('ARGTRYRFVSQ [UCN3_Y95_YF]', 0.0),
  ('YISLIYTNYEA [GSTP1_Y109]', 1.0),
  ('FFHCTYKQRMI [CLEC12A_Y242_K244Q_YF]', 1.0),
  ('TVMGLYQKSSL [MYH7_Y609_V606M]', 0.0),
  ('LGPDGYSTVDR [ARVCF_Y901]', 0.0),
  ('LTDLRYKVSGP', 1.0),
  ('AKKMKYFEGVS [PRKDC_Y682_I680M]', 0.0),
  ('TTKGAYSLSIR [YES1_Y194]', 1.0),
  ('VSLLPYFPAIM [IPO4_Y518_A513V]', 0.0),
  ('RNNTEYVRDIG [MUSK_Y577_I575T]', 0.0),
  ('GEVLVYVEDPA [FLNA_Y319]', 0.0),
  ('KSPGEYVNIEF [IRS1_Y896]', 1.0),
  ('EALSLYTKLMN [STAM_Y371]', 0.0),
  ('MSSLFYANTLF [HOXB7_Y6_YF]', 0.0),
  ('EGLKVYVNGTL [ADGRD1_Y183]', 1.0),
  ('KRISCYEASFQ [PFKFB3_Y194_YF]', 0.0),
  ('HYPDVYAWEQL [ALX3_Y181_R183W]', 0.0),
  ('RVNSAYQDKVS [ACAN_Y100]', 0.0),
  ('AHAGEYGAGAL [HBA1_Y25_E28G]', 0.0),
  ('EQMLEYMGQLQ [CFAP45_Y289_E291G]', 0.0),
  ('RQNNSYTCFTA [SLC20A2_Y386_R382Q_YF]', 0.0),
  ('ACRSLYGGFVE [MVD_Y164]', 0.0),
  ('RKKEEYKMALY [F8_Y1990]', 1.0),
  ('SECCKYKIDNL [OSMR_Y689_P694L]', 0.0),
  ('PLGPLYASSNP [INSR_Y992]', 0.0),
  ('PYAEPYADYGG [APBA1_Y187_S184A]', 0.0),
  ('WSQAMYPDLGP [STARD8_Y330_R327Q]', 1.0),
  ('SWDKRYCEAGC [ITGA2B_Y197_F202C]', 0.0),
  ('DRLASYLDKMR [KRT17_Y98_V102M]', 1.0),
  ('RQNQEYEILLD [KRT39_Y379]', 1.0),
  ('SMGHRYIEVFK [HNRNPF_Y82]', 1.0),
  ('NPSFNYEIVNR [DYNC1H1_Y3379_YF]', 0.0),
  ('LQIPMYEVQWK [KIT_Y553_K550I]', 0.0);
